B1: minF1; a variant is named by its letters at N, in order (parent)
chain: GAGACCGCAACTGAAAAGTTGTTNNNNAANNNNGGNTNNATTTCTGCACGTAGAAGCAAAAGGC

Variants of: B1
test_name: fraction ligated after 30 min (ligated reads / total reads); higher = more ligase activity
measurement_context: with F1*subA RNA substrate (template-directed ligation), 42 °C
Overview of reported fraction ligated across a group of variants:

>  <change>
TCGAGGATGTA

>  <fraction ligated>
0.00168

$$$$
>  <change>
CAGATGATGTG T23A

>  <fraction ligated>
0.00584

$$$$
>  <change>
AGAAGGTGTGA T23C A29T

>  <fraction ligated>
0.00383

$$$$
>  <change>
ACAGAGGTGTG

>  <fraction ligated>
0.00409

$$$$
>  <change>
TAGAGATGTGA A29G

>  <fraction ligated>
0.00391

$$$$
>  <change>
ACAATGGATGA

>  <fraction ligated>
0.00232

$$$$
>  <change>
ATAGATGGGTT G34A T37G A40G

>  <fraction ligated>
0

$$$$
>  <change>
ATAGTGGTGTG

>  <fraction ligated>
0.00637

$$$$
>  <change>
ATAGTGGAGTG G34T

>  <fraction ligated>
0.0109

$$$$
>  <change>
TAGAGGATGTG T23A A29T

>  <fraction ligated>
0.00945

$$$$
>  <change>
ATAGAATGTGA

>  <fraction ligated>
0.00417

$$$$
>  <change>
ACAATGGGTGA

>  <fraction ligated>
0.00353

$$$$
>  <change>
AGAAGATGTGA T23C A28T A29G

>  <fraction ligated>
0.00411

$$$$
>  <change>
TAGATGGTGTA T23A

>  <fraction ligated>
0.00161

$$$$
>  <change>
TCAGAGGTGTA T23A

>  <fraction ligated>
0.00248

$$$$
>  <change>
ATCGATGTTGA

>  <fraction ligated>
0.00239

$$$$
>  <change>
TCAGTGGAGTA T23A

>  <fraction ligated>
0.00382

$$$$
>  <change>
TAGAGGTGTGA T23A A29T

>  <fraction ligated>
0.00331

$$$$
>  <change>
ACGAGGATGTA

>  <fraction ligated>
0.00292

$$$$
>  <change>
ATCAGATGTGA A28G A29G

>  <fraction ligated>
0.00309

$$$$
>  <change>
ATGAGGAGTGA A29T

>  <fraction ligated>
0.0018

$$$$
>  <change>
ACAGTGGTGTG

>  <fraction ligated>
0.00543

$$$$

Cited source for all entries: the supplement of paper PMC6755084
